- System: 4T1
- ASSAY_SUMMARY: % inhibition of 4T1 cell number vs DMSO control; higher = stronger growth inhibition
- TEST_CONDITIONS: 1 µM; 3 days; substrate: plastic
MEASURE: % inhibition of 4T1 cell number
Give the figure together with its unit, number first.

Inquiry: % inhibition of 4T1 cell number for COc1ccc(COc2ccc(Cc3cnc(N)nc3N)cc2OC)cc1 ?
Reply text: -59.7%

Inquiry: % inhibition of 4T1 cell number for CC(=O)c1ccc(N2CCOCC2)cc1O ?
Reply text: -24.1%

Inquiry: % inhibition of 4T1 cell number for CCCC(=O)Oc1ccc2[nH]c(C(=O)c3cc4ccccc4[nH]3)cc2c1 ?
Reply text: -70.2%

Inquiry: % inhibition of 4T1 cell number for Cn1nc2c3c(cccc31)C(=O)c1ccccc1-2 [JNK Inhibitor, Negative Control] ?
Reply text: -59.1%

Inquiry: % inhibition of 4T1 cell number for CN(C)S(=O)(=O)c1ccc2c(c1)/C(=C/c1cc3c([nH]1)CCCC3)C(=O)N2 ?
Reply text: -51.8%

Inquiry: % inhibition of 4T1 cell number for CC[n+]1c(/C=C/N(C)c2ccccc2)n(-c2ccccc2)c2ccc(-c3nc4ccccc4s3)cc21 ?
Reply text: 78.2%

Inquiry: % inhibition of 4T1 cell number for COc1cccc(-c2cc(=O)c3ccccc3o2)c1N ?
Reply text: -41.4%

---

- Tested on: 4T1
- ASSAY_SUMMARY: % inhibition of 4T1 cell number vs DMSO control; higher = stronger growth inhibition
- TEST_CONDITIONS: 1 µM; 3 days; substrate: lung fibroblast-derived matrix
MEASURE: % inhibition of 4T1 cell number (%)
// return numeric value only (unit: %, not printed)

Inquiry: % inhibition of 4T1 cell number for O=c1[nH][nH]c2nnc(-c3c(-c4ccccc4)nn4ccccc34)cc12 [ERK Inhibitor II, Negative control] ?
Reply text: -10

Inquiry: % inhibition of 4T1 cell number for CN(C)CCCn1cc(C2=C(c3c[nH]c4ccccc34)C(=O)NC2=O)c2ccccc21 [Bisindolylmaleimide I] ?
Reply text: -13.3

Inquiry: % inhibition of 4T1 cell number for O=c1c(O)c(-c2ccc(O)c(O)c2)oc2cc(O)c(O)c(O)c12 ?
Reply text: -6.29

Inquiry: % inhibition of 4T1 cell number for NC(=O)c1ccc2nc(-c3ccc(Oc4ccc(Cl)cc4)cc3)[nH]c2c1 ?
Reply text: 22.1

Values from the supplement of paper PMC8269313
